Experiment: Plasma toceranib concentration (LC–MS/MS) in dogs with solid tumors treated with TOC
Format: in vivo
Conditions: dog, plasma, po, dogs with tumor recurrence; read-out: mean Cmax on average
REPORTED ENDPOINT: Cmax

Inquiry: // Cmax lookup, key: Cc1[nH]c(/C=C2\C(=O)Nc3ccc(F)cc32)c(C)c1C(=O)NCCN1CCCC1 [TOC, Toceranib phosphate]
Reply text: 82.7 ng/mL

* * *

Experiment: Plasma toceranib concentration (LC–MS/MS) in dogs with solid tumors treated with TOC
Assay type: in vivo
Settings: dog, plasma, oral, dogs with AEs; read-out: mean Cmin
REPORTED ENDPOINT: concentration at 48 h (ng/mL)
State the answer as a number, implicitly in ng/mL.

Inquiry: // concentration at 48 h lookup, key: Cc1[nH]c(/C=C2\C(=O)Nc3ccc(F)cc32)c(C)c1C(=O)NCCN1CCCC1 [TOC, Toceranib phosphate]
Reply text: 13.5

* * *

Assay: Plasma toceranib concentration (LC–MS/MS) in dogs with solid tumors treated with TOC
Assay type: in vivo
Conditions: dog, plasma, po, nine dogs, mean ± SD; read-out: overall mean Cmax at week 1
REPORTED ENDPOINT: Cmax (ng/mL)
State the answer as a number, implicitly in ng/mL.

Inquiry: // Cmax lookup, key: Cc1[nH]c(/C=C2\C(=O)Nc3ccc(F)cc32)c(C)c1C(=O)NCCN1CCCC1 [TOC, Toceranib phosphate]
Reply text: 76.2

* * *

Assay: Plasma toceranib concentration (LC–MS/MS) in dogs with solid tumors treated with TOC
Type: in vivo
Conditions: dog, plasma, po, dogs without tumor recurrence; read-out: mean Cmax on average
REPORTED ENDPOINT: Cmax

Inquiry: // Cmax lookup, key: Cc1[nH]c(/C=C2\C(=O)Nc3ccc(F)cc32)c(C)c1C(=O)NCCN1CCCC1 [TOC, Toceranib phosphate]
Reply text: 73.2 ng/mL

* * *

Assay: Plasma toceranib concentration (LC–MS/MS) in dogs with solid tumors treated with TOC
Format: in vivo
Settings: dog, plasma, po, nine dogs, average of weeks, mean ± SD; read-out: overall mean Cmax on average
REPORTED ENDPOINT: Cmax
Report field: quantity (unit follows the number).

Inquiry: // Cmax lookup, key: Cc1[nH]c(/C=C2\C(=O)Nc3ccc(F)cc32)c(C)c1C(=O)NCCN1CCCC1 [TOC, Toceranib phosphate]
Reply text: 76.4 ng/mL

* * *

Assay: Plasma toceranib concentration (LC–MS/MS) in dogs with solid tumors treated with TOC
Type: in vivo
Details: dog, plasma, po, individual dogs (case no. in c0), plasma 6 h after oral administration, week 12; read-out: Cmax Week 12
REPORTED ENDPOINT: Cmax (ng/mL)
State the answer as a number, implicitly in ng/mL.

Inquiry: // Cmax lookup, key: Cc1[nH]c(/C=C2\C(=O)Nc3ccc(F)cc32)c(C)c1C(=O)NCCN1CCCC1 [TOC, Toceranib phosphate]
Reply text: 47.4

* * *

Assay: Plasma toceranib concentration (LC–MS/MS) in dogs with solid tumors treated with TOC
Type: in vivo
Conditions: dog, plasma, po, dogs without AEs; read-out: mean Cmax at week 1
REPORTED ENDPOINT: Cmax (ng/mL)
State the answer as a number, implicitly in ng/mL.

Inquiry: // Cmax lookup, key: Cc1[nH]c(/C=C2\C(=O)Nc3ccc(F)cc32)c(C)c1C(=O)NCCN1CCCC1 [TOC, Toceranib phosphate]
Reply text: 59.9

* * *

Experiment: Plasma toceranib concentration (LC–MS/MS) in dogs with solid tumors treated with TOC
Assay type: in vivo
Settings: dog, plasma, oral, four dogs, mean ± SD; read-out: overall mean Cmin
REPORTED ENDPOINT: concentration at 48 h (ng/mL)
State the answer as a number, implicitly in ng/mL.

Inquiry: // concentration at 48 h lookup, key: Cc1[nH]c(/C=C2\C(=O)Nc3ccc(F)cc32)c(C)c1C(=O)NCCN1CCCC1 [TOC, Toceranib phosphate]
Reply text: 14.2
